Origin of the recorded values: patent US6150357A

TARGET_OR_TEST_SYSTEM: slowly activating cardiac delayed rectifier potassium current (IKs) (Cavia porcellus)
Construct: Guinea pig ventricular myocytes were isolated as described; endogenous in cells; host or cells: isolated guinea pig ventricular myocytes
ASSAY_INFO: Whole-cell voltage-clamp of IKs in guinea pig ventricular myocytes
Type: cell-based
MEASUREMENT_CONTEXT: 10 μM; read-out: Agonist Effect - % Increase in IKs, Vt +50 mV
QUANTITY_MEASURED: activation at 10 µM (%)
Return type: number; implicit unit %.

Example entries and their recorded answers appear below.
INSERT INTO results (compound, target_or_test_system, result_value) VALUES
  ('O=C1Nc2ccccc2C(c2ccccc2F)=N[C@@H]1Cc1c[nH]c2ccccc12 [R-L4]', 'slowly activating cardiac delayed rectifier potassium current (IKs) (Cavia porcellus)', 114),
  ('Cc1cccc(N2C(=O)NC3(N=C(c4ccccc4)c4ccccc4N(C)C3=O)C2=O)c1 (stereo not shown) [L6]', 'slowly activating cardiac delayed rectifier potassium current (IKs) (Cavia porcellus)', 31);

Lab request: please report activation at 10 µM under test system slowly activating cardiac delayed rectifier potassium current (IKs) (Cavia porcellus) for Cc1cccc(NC(=O)N2CCC3(CC2)CC(=O)c2ccccc2O3)c1 [L8]
65

Lab request: please report activation at 10 µM under test system slowly activating cardiac delayed rectifier potassium current (IKs) (Cavia porcellus) for O=C1Nc2ccc(Cl)cc2C(c2ccccc2)=N[C@@H]1Cc1c[nH]c2ccccc12 [R-L5]
22
